Molecular target: C-X-C chemokine receptor type 3 (Homo sapiens, UniProt P49682)
Sequence (P49682 whole entry): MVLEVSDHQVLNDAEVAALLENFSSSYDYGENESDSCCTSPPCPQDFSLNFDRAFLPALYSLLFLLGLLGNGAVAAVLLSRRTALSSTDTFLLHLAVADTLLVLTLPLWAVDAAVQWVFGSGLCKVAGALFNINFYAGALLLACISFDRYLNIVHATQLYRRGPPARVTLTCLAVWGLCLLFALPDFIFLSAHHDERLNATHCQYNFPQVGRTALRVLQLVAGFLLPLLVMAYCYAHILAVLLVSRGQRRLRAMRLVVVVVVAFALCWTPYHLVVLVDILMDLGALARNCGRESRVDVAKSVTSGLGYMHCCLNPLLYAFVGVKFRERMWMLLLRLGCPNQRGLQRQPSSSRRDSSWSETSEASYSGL
Test: Displacement of [125I]IP10 from human recombinant CXCR3 receptor expressed in IL2-activated human PBMC in presence of plasma
MEASURED PARAMETER: pIC50
Schema: pIC50 number; meaning minus log10 of the concentration expressed in molar units.

In the examples that follow, each entry is paired with its recorded pIC50.
STRUCTURE SMILES STRING: CCOc1ccc(-n2cc(-c3ccccc3)nc2[C@@H](C)N(CCS(=O)(=O)CC)C(=O)Cn2ccc(C(F)(F)F)n2)cc1
RECORDED NUMBER: 5.95
--
STRUCTURE SMILES STRING: CCOc1ccc(-n2cc(-c3ccccc3)nc2[C@@H](C)N(CCS(=O)(=O)CC)C(=O)Cn2nnc(-c3ccccc3)n2)cc1
RECORDED NUMBER: 7.16
--
STRUCTURE SMILES STRING: CCOc1ccc(-n2cc(-c3ccccc3)nc2[C@@H](C)N(C[C@@H]2CCCN2C)C(=O)Cc2ccc(F)c(C(F)(F)F)c2)cc1
RECORDED NUMBER: 7.51

--- query ---
IN: Field request: pIC50 | item: `CCOc1ccc(-n2cc(-c3ccccc3)nc2[C@@H](C)N(C[C@H]2CCCN2)C(=O)Cc2ccc(F)c(C(F)(F)F)c2)cc1`
OUT: 7.44
